target: hrCXCR2 (Homo sapiens, UniProt P25025)
Sequence (P25025 whole entry): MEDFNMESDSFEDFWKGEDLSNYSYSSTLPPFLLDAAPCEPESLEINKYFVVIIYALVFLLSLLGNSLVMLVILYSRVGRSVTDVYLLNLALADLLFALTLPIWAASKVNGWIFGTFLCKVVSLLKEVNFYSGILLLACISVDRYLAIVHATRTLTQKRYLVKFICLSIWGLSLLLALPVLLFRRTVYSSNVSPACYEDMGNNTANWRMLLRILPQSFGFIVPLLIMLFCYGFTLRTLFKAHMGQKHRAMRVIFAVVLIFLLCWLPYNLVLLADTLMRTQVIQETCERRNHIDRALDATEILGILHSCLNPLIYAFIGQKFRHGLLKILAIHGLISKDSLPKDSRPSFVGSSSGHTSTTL

lineNotation: CC(CO)(CO)Nc1nc(SCc2cccc(F)c2F)nc2[nH]c(=O)sc12
targetSystem: hrCXCR2 (Homo sapiens, UniProt P25025)
IC50: < 10 µM

meta.source: patent US7585867B2
